# Test system: PC-3 prostate
# measurement.notes: NCI tumour cell line growth inhibition, 48 h
Lab note: compare TGI against 6 µM. Equal or greater, write criterion met. Smaller, write criterion not met.

Solved cases (8 shown):
- CCc1c(Oc2ccc(C(C)=O)cc2)c2ccccc2[nH]c1=O: criterion met
- COc1cc(/C=C/c2cc(/C=C/c3ccc(O)c(OC)c3)n(-c3ccccc3)n2)ccc1O: criterion met
- COc1ccccc1N/C(=C\C(=O)C(=O)NC12CC3CC(CC(C3)C1)C2)c1ccccc1: criterion met
- O=C(c1ccco1)c1nc2ccc(C(F)(F)F)cc2[n+]([O-])c1C(F)(F)F: criterion met
- O=[N+]([O-])/C=C\c1ccc(Cl)c(Cl)c1: criterion not met
- Cc1cc(N(CCC#N)CCC#N)ccc1/C=N/NC(=O)c1cc(Cl)ccc1O: criterion met
- CCN(CC)CCc1c2c(nc3ccccc13)C(=O)c1cccnc1C2=O: criterion met
- COc1ccc2c(c1)c(-c1nc(-c3cn(C)c4ncccc34)cs1)cn2CCCN1CCCCC1: criterion not met

Inquiry: Is TGI for N#C/C(=C1C=C/C(=N/O)C(Br)=C/1)c1ccccc1 at or above 6 µM?
Reply text: criterion met

Inquiry: Say whether CN1CCN(Cc2ccc(NC(=O)c3cncc(C#Cc4cnc(N)c5ccc(C#N)cc45)c3)cc2C(F)(F)F)CC1 shows TGI of 6 µM or more.
Reply text: criterion not met

* * *

# Tested on: HOP-62 NSCLC
# measurement.notes: NCI tumour cell line growth inhibition, 48 h
experimental.endpoint: TGI

Recorded results for 2 compounds are shown here.
• CCOc1cccc(/C=N/NC(=O)c2ccccc2Nc2ccnc(C(F)(F)F)c2)c1O = > 53.8 µM
• Cc1ccc(C(=O)Nc2ccc(CP(=O)(O)O)cc2CP(=O)(O)O)cc1NC(=O)c1cccc(N)c1 = > 100 µM

The following compounds each have a reported value; give each one's TGI.
1. COc1cccc(/C=N/NC(=O)c2ccccc2Nc2ccnc(C(F)(F)F)c2)c1O
2. O=C(O)CCCCC(CCSCc1ccccc1)SCc1ccccc1 (stereo not given)
3. CC1CCC2(C(=O)O)CCC3(C)C(=CCC4C5(C)CC(O)C(O)C(C)(CO)C5C(O)CC43C)C2C1C (stereo not given)

Reply text:
1. > 53.6 µM
2. > 100 µM
3. > 83.7 µM

* * *

# Test system: EKVX NSCLC
# measurement.notes: NCI tumour cell line growth inhibition, 48 h
Assignment: determine reported TGI for the given compounds.

* CCN1CC2=C(NC(=S)NC2c2ccc(Cl)cc2)/C(=C/c2ccc(Cl)cc2)C1 (stereo not given) | > 100 µM
* COc1cc(/C=C/c2cc(/C=C/c3ccc(O)c(OC)c3)n(-c3ccccc3)n2)ccc1O | 3.7 µM
* CC1OC(O[C@H]2C[C@@H](O)[C@]3(CO)[C@H]4[C@H](O)C[C@]5(C)[C@@H](C6=CC(=O)OC6)CC[C@]5(O)[C@@H]4CC[C@]3(O)C2)C(O)C(O)C1O (stereo not given in full) | 30.5 µM
* CCOc1ccc2c(c1)[n+]([O-])c(S(=O)(=O)c1ccc(C)cc1)c(N)[n+]2[O-] | > 100 µM

Now look at this entry.
Inquiry: For CC(C)c1ccc2[nH]c(O)c(-c3[nH]c4ccccc4c3N=O)c2c1 , what is its reported TGI?
Reply text: 16.6 µM

* * *

# Tested on: SK-MEL-5 melanoma
# measurement.notes: NCI tumour cell line growth inhibition, 48 h; in the data active means GI50 below about 0.43 µM; inactive means the rest
Please reply with one of these outcomes: active, inactive

As a guide, the following entries are already answered.
• CC[CH2][Pb]([CH2]CC)([CH2]CC)[O]C(=O)C(F)(F)F = active
• Cc1c(C(=O)N/N=C/c2ccc(Cl)cc2)nnn1-c1ccnc2c(C(F)(F)F)cccc12 = inactive
• CC(C)CC(=O)[O-].CC(C)CC(=O)[O-].N.N.N.N.[Co+3].[O-][Cl+3]([O-])([O-])[O-] = inactive
• CN1CCN(Cc2ccc(NC(=O)c3cncc(C#Cc4cnc(N)c5ccc(C#N)cc45)c3)cc2C(F)(F)F)CC1 = active
• O=C(c1ccco1)c1nc2ccc(C(F)(F)F)cc2[n+]([O-])c1C(F)(F)F = inactive

Inquiry: I would be grateful if you could indicate the recorded call for CSc1ccc(C2=NN(C(C)=O)C(c3cc(C)cs3)C2)cc1 (centres undefined) .
Reply text: inactive

Inquiry: Per the records of this test, what outcome belongs to O=C(Nc1ccc(N2CCNCC2)cc1)c1[nH]ncc1Nc1cc(Oc2ccccc2)ncn1 ?
Reply text: inactive

Inquiry: In this assay, the call recorded for COc1ccc(C2=NN(C(=O)c3cc(OC)c(OC)c(OC)c3)C(c3ccc(C#N)cc3)C2)cc1OC (centres undefined) was what?
Reply text: inactive

Inquiry: Call for entry O=c1oc2ccc(F)cc2c(=O)n1-c1ccc(F)cc1F :
Reply text: inactive

* * *

What TGI was measured for each of the following?
# Tested on: MOLT-4 leukemia
# measurement.notes: NCI tumour cell line growth inhibition, 48 h
One number for each entry, in µM.

Below is a list of molecules. For each, state its recorded TGI.
1. CCCCCCCCCCCC(=O)CC(=O)c1c(O)cccc1O
2. CCN1CC2=C(NC(=S)NC2c2ccc(Cl)cc2)/C(=C/c2ccc(Cl)cc2)C1 (stereo not given)
3. COc1ccccc1C1C(C(=O)Nc2ccccc2)=C(C)NC(C)=C1C(=O)Nc1ccccc1
4. O=C(NNC(=S)Nc1ccc(Cl)cc1)c1cc(-c2ccccc2)nc2ccccc12

Reply text:
1. 41.9
2. 79.2
3. 56.8
4. 27.7

* * *

# Test system: COLO 205 colon
# measurement.notes: NCI tumour cell line growth inhibition, 48 h
I'd be grateful if you could share measured TGI for these entries.

• Cc1cc(N(CCC#N)CCC#N)ccc1/C=N/NC(=O)c1cc(Cl)ccc1O = > 100 µM

For every item in the list below, what is its measured TGI?
1. CCOC(=O)CCc1cc(=O)oc2cc(O)cc(O)c12
2. COc1cc(C2c3cc4c(cc3C(NCC(O)CO)C3COC(=O)[C@H]23)OCO4)cc(OC)c1OC (some centres not stated)
3. Cc1ccc(-c2c3c([nH]c(=O)c2C#N)-c2cc(F)ccc2OC3)cc1
4. C=C(C(=O)C(=O)Oc1ccc(Cl)cc1)C(=O)c1ccc(C)cc1
5. COCOC1/C=C/CCCC#C[C@H](C)C(=O)CC1 (some centres not stated)
6. N#C/C(=C/c1ccsc1)C(=O)c1ccccc1
7. CN(C)CCNc1cc(-c2ccccc2)nc2ccccc12
8. COCOC1/C=C/CCCCC2=C(C)C=C(C1)O2 (configuration not stated)

Reply text:
1: > 100 µM; 2: 0.364 µM; 3: > 100 µM; 4: > 100 µM; 5: 17.6 µM; 6: > 100 µM; 7: 7.74 µM; 8: > 100 µM

* * *

# Test system: HOP-62 NSCLC
# measurement.notes: NCI tumour cell line growth inhibition, 48 h; in the data active = GI50 below about 0.43 µM; inactive = the rest
One label from this list, please: true = active, false = inactive

Observe how each entry below is paired with its result.
- O=C1/C(=C/c2ccc(Cl)cc2Cl)N=C(c2ccccc2)N1Cc1ccco1: false
- CSc1ccc(C2=NN(C(C)=O)C(c3cc(C)cs3)C2)cc1 (configuration not stated): false
- Nc1ccn(C2O[C@H](CO)[C@@H](O)[C@@H]2O)c(=O)n1 (some centres not stated): false

Inquiry: Per the records of this test, what outcome belongs to CN(C)CCNc1cc(-c2ccccc2)nc2ccccc12 ?
Reply text: false

Inquiry: Please state the recorded outcome for this compound: COc1ccc2[nH]c(O)c(/C=c3/cc4c(c(-c5cc(OC)c(OC)c(OC)c5)n3)=Nc3ccccc3-4)c2c1
Reply text: false

Inquiry: Dear colleague, could you share the recorded outcome for COC(=O)c1cc2c3ccccc3[nH]c2c2ncccc12 when you have a moment?
Reply text: false

* * *

# Tested on: SK-MEL-2 melanoma
# measurement.notes: NCI tumour cell line growth inhibition, 48 h
experimental.endpoint: TGI

Example compounds with recorded TGI:
* CSc1ccc(C2=NN(C(C)=O)C(c3cc(C)cs3)C2)cc1 (stereo not given) | > 100 µM
* O=C(CI)NC1Oc2ccccc2-c2oc(=O)c(-c3ccccc3)cc21 (stereo not given) | 5.43 µM
* CCOC(=O)C1Cc2[nH]c3ccccc3c2C(C)C1C (stereo not given) | 36 µM
* CC(C)CC(=O)[O-].CC(C)CC(=O)[O-].N.N.N.N.[Co+3].[O-][Cl+3]([O-])([O-])[O-] | > 100 µM
* CSc1cc(N=Nc2nc3ccccc3s2)c2ccccc2c1O | 22 µM
* CCCCN(CCCC)C(=O)C(=O)C(C#N)c1ccc(C)cc1 (stereo not given) | > 100 µM

# batch: return TGI for each of the 2 compounds below
1. Cc1cc2c(cc1C)[n+](=O)c(C(=O)CC(=O)C(=O)Nc1c(C(C)C)cccc1C(C)C)c(C)n2[O-]
2. NC(=O)N/N=C(\Cc1nc2ccc(Cl)cc2[nH]c1=O)C(=O)Nc1ccc(Cl)cc1Cl

Reply text:
1. > 100 µM
2. > 100 µM

Kindly give each listed record's TGI.
1. N.N.N.O=[N+]([O-])[O-].O=[N+]([O-])[O-].O=[N+]([O-])[O-].O=[N+]([O-])[O-].[Co+3]
2. CC1(C)CC(/C=C2/OC(=O)c3ccccc32)=C(C#N)C(=O)O1

Reply text:
1: > 100 µM; 2: > 100 µM
